# System: G3BP1 NTF2 domain (residues 1-139) WT (human, UniProt Q13283 1-139)
# Sequence (Q13283 1-139): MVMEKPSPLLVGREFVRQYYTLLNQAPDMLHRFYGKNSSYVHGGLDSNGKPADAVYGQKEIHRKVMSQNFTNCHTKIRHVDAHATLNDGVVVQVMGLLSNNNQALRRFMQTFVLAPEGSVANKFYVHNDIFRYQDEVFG
# Assay Info: fluorescence polarisation
pKd: −log10 of the molar value. Where no end group is shown, it is not given here. Ahx = NCCCCCC(=O)O
Measurement Label: pKd

{"Binder": "{fluorescein-Ahx}-YNFIQDSMLDFE [Caprin1-derived dodecamer reporter peptide F*-YNFIQDSMLDFE]", "Measured Number": 5.77}

Values were extracted from paper doi:10.1101/2022.03.02.482667.
